- procedure.details: Half-life in mice
- measurement.conditions: mouse, in vivo, iv
Structures can show the parent of a compound that is named as a salt.
endpoint: half-life

Field half-life (entry COc1c(OCCCN2CCOCC2)ccc2c1N=C(NC(=O)c1cnc(N)nc1)N1CCN=C21 [COMPOUND A, dihydrochloride] ) reads ~1 h

Reference source for all entries: patent US9999623B2
